- Study system: c-Kit(V654A) (Homo sapiens, UniProt P10721, V654A)
- Construct: recombinant human c-Kit, amino acids 544-end containing the V654A mutation; GST (N)
- Sequence (P10721 544-976 V654A): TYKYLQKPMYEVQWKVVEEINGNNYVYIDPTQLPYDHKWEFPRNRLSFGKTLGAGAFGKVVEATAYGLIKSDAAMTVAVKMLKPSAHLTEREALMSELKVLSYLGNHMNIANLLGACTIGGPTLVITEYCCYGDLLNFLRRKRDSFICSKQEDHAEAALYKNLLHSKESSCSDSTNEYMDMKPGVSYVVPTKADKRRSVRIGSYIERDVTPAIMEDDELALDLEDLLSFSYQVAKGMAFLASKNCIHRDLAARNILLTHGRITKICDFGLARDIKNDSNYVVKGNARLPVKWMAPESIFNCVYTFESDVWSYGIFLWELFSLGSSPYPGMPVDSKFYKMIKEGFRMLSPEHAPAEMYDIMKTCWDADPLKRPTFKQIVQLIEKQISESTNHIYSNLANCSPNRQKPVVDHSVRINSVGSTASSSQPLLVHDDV
- Measurement notes: c-Kit(V654A) assay (33P-ATP filter binding kinase assay)
- Run conditions: recombinant human c-Kit aa 544-end V654A, ATP 200 μM
Reported property: IC50 (nM)

Some molecules with recorded IC50:
Cn1cc(-c2ccc(CNc3cc(-c4cnc5cc(OCCN6CCOCC(F)(F)C6)ccn45)ncn3)cc2)cn1: 27
COc1ccn2c(-c3cc(NCc4ccc(-n5cnc6ccccc65)cc4)ncn3)cnc2c1: 63

[a] COc1ccn2c(-c3cc(NCc4ccc(-c5cn(CC(C)(C)O)nc5N)cc4)ncn3)cnc2c1
[b] Cn1cc(-c2ccc(CNc3cc(-c4cnc5cc(OCCCCN6CCC6)ccn45)ncn3)cc2)cn1
Larger number for IC50: a , or b ? Let me know the label of the one you choose.
a
(a: 87 nM, b: 15 nM)
